- measurementTarget: 17-beta-hydroxysteroid dehydrogenase type 3 (Homo sapiens, UniProt P37058)
- Sequence (P37058 whole entry): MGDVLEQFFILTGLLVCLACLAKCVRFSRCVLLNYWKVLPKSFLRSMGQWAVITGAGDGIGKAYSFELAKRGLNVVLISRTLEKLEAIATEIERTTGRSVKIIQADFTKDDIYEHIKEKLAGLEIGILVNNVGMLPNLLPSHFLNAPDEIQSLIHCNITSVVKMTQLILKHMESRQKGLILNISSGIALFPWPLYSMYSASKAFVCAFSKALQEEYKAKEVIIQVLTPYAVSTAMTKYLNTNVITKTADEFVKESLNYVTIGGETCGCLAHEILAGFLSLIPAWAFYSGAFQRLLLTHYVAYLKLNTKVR
- assaySummary: Inhibition of 17beta-HSD3 by SEAP assay

entrySmiles	measurementTarget	qualifierSymbol	IC50, nM
CC(=O)N1Cc2cc(-c3ccccc3)ccc2CCc2ccccc21	17-beta-hydroxysteroid dehydrogenase type 3 (Homo sapiens, UniProt P37058)	=	4
COC(=O)c1ccccc1-c1ccc2c(c1)CN(C(C)=O)c1ccc(Cl)cc1CC2	17-beta-hydroxysteroid dehydrogenase type 3 (Homo sapiens, UniProt P37058)	=	0.5
CC(=O)N1Cc2ccc(Br)cc2CCc2ccccc21	17-beta-hydroxysteroid dehydrogenase type 3 (Homo sapiens, UniProt P37058)	=	36
CC(=O)N1Cc2ccccc2CSc2cc(Cl)ccc21	17-beta-hydroxysteroid dehydrogenase type 3 (Homo sapiens, UniProt P37058)	=	160
CC(=O)N1Cc2cc(-c3ccccc3NS(C)(=O)=O)ccc2CCc2cc(Cl)ccc21	17-beta-hydroxysteroid dehydrogenase type 3 (Homo sapiens, UniProt P37058)	=	9
CNC(=O)c1ccccc1-c1ccc2c(c1)CN(C(C)=O)c1ccc(Cl)cc1CC2	17-beta-hydroxysteroid dehydrogenase type 3 (Homo sapiens, UniProt P37058)	=	25
CC(=O)N1Cc2cc(-c3ccccc3)ccc2CCc2cc(Cl)ccc21	17-beta-hydroxysteroid dehydrogenase type 3 (Homo sapiens, UniProt P37058)	=	18
CCN1Cc2ccc(Br)cc2CCc2ccccc21	17-beta-hydroxysteroid dehydrogenase type 3 (Homo sapiens, UniProt P37058)	=	2200
CC(=O)N1Cc2ccccc2/C=C\c2cc(Cl)ccc21	17-beta-hydroxysteroid dehydrogenase type 3 (Homo sapiens, UniProt P37058)	=	500
CC(=O)N1Cc2ccc(N)cc2CCc2ccccc21	17-beta-hydroxysteroid dehydrogenase type 3 (Homo sapiens, UniProt P37058)	=	490
CC(=O)N1Cc2cc(-c3ccccc3C#N)ccc2CCc2cc(Cl)ccc21	17-beta-hydroxysteroid dehydrogenase type 3 (Homo sapiens, UniProt P37058)	=	62
CC(=O)N1Cc2ccc(C(N)=O)cc2CCc2ccccc21	17-beta-hydroxysteroid dehydrogenase type 3 (Homo sapiens, UniProt P37058)	=	2980
CC(=O)N1Cc2ccc(NCc3ccccc3)cc2CCc2ccccc21	17-beta-hydroxysteroid dehydrogenase type 3 (Homo sapiens, UniProt P37058)	=	4
CC(=O)c1ccccc1-c1ccc2c(c1)CN(C(C)=O)c1ccc(Cl)cc1CC2	17-beta-hydroxysteroid dehydrogenase type 3 (Homo sapiens, UniProt P37058)	=	0.5
COc1ccccc1-c1ccc2c(c1)CN(C(C)=O)c1ccc(Cl)cc1CC2	17-beta-hydroxysteroid dehydrogenase type 3 (Homo sapiens, UniProt P37058)	=	5
CC(=O)N1Cc2cc(-c3cccc(C#N)c3)ccc2CCc2cc(Cl)ccc21	17-beta-hydroxysteroid dehydrogenase type 3 (Homo sapiens, UniProt P37058)	=	15
CC(=O)N1Cc2ccc(NC(=O)c3ccccc3)cc2CCc2ccccc21	17-beta-hydroxysteroid dehydrogenase type 3 (Homo sapiens, UniProt P37058)	=	260
CC(=O)N1Cc2cc(-c3cccc(NS(C)(=O)=O)c3)ccc2CCc2cc(Cl)ccc21	17-beta-hydroxysteroid dehydrogenase type 3 (Homo sapiens, UniProt P37058)	=	190
CC(=O)N1Cc2ccccc2CSc2cc(Cl)c(Cl)cc21	17-beta-hydroxysteroid dehydrogenase type 3 (Homo sapiens, UniProt P37058)	=	130
CC(=O)N1Cc2ccccc2CSc2c1ccc(Cl)c2Cl	17-beta-hydroxysteroid dehydrogenase type 3 (Homo sapiens, UniProt P37058)	=	1300
CC(=O)N1Cc2cc(-c3ccccc3CO)ccc2CCc2cc(Cl)ccc21	17-beta-hydroxysteroid dehydrogenase type 3 (Homo sapiens, UniProt P37058)	=	2
CC(=O)N1Cc2ccccc2CSc2cc(F)ccc21	17-beta-hydroxysteroid dehydrogenase type 3 (Homo sapiens, UniProt P37058)	=	290
COc1ccc(-c2ccc3c(c2)CN(C(C)=O)c2ccc(Cl)cc2CC3)cc1	17-beta-hydroxysteroid dehydrogenase type 3 (Homo sapiens, UniProt P37058)	=	48
CC(=O)N1Cc2ccccc2CSc2ccc(Cl)cc21	17-beta-hydroxysteroid dehydrogenase type 3 (Homo sapiens, UniProt P37058)	=	170
CC(=O)N1Cc2ccccc2CSc2ccccc21	17-beta-hydroxysteroid dehydrogenase type 3 (Homo sapiens, UniProt P37058)	=	320
CC(=O)N1Cc2ccccc2CCc2ccccc21	17-beta-hydroxysteroid dehydrogenase type 3 (Homo sapiens, UniProt P37058)	=	220
COC(=O)c1cccc(-c2ccc3c(c2)CN(C(C)=O)c2ccc(Cl)cc2CC3)c1	17-beta-hydroxysteroid dehydrogenase type 3 (Homo sapiens, UniProt P37058)	=	2
CC(=O)N1Cc2ccccc2CCc2ccc(Cl)cc21	17-beta-hydroxysteroid dehydrogenase type 3 (Homo sapiens, UniProt P37058)	=	130
CC(=O)N1Cc2ccccc2CSc2cc(C)ccc21	17-beta-hydroxysteroid dehydrogenase type 3 (Homo sapiens, UniProt P37058)	=	870
COc1ccc2c(c1)SCc1ccccc1CN2C(C)=O	17-beta-hydroxysteroid dehydrogenase type 3 (Homo sapiens, UniProt P37058)	>	10000
CC(=O)N1Cc2cc(-c3ccc(C#N)cc3)ccc2CCc2cc(Cl)ccc21	17-beta-hydroxysteroid dehydrogenase type 3 (Homo sapiens, UniProt P37058)	=	19
CC(=O)N1Cc2cc(-c3ccccc3CN)ccc2CCc2cc(Cl)ccc21	17-beta-hydroxysteroid dehydrogenase type 3 (Homo sapiens, UniProt P37058)	=	182
NC(=O)N1Cc2ccc(Br)cc2CCc2ccccc21	17-beta-hydroxysteroid dehydrogenase type 3 (Homo sapiens, UniProt P37058)	=	930
CC(=O)N1Cc2cc(Br)ccc2CCc2ccccc21	17-beta-hydroxysteroid dehydrogenase type 3 (Homo sapiens, UniProt P37058)	=	32
CC(=O)N1Cc2cc(-c3cccc(CN)c3)ccc2CCc2cc(Cl)ccc21	17-beta-hydroxysteroid dehydrogenase type 3 (Homo sapiens, UniProt P37058)	=	180
COC(=O)c1ccccc1-c1ccc2c(c1)CN(C(C)=O)c1ccc(Br)cc1CC2	17-beta-hydroxysteroid dehydrogenase type 3 (Homo sapiens, UniProt P37058)	=	1
CC(=O)N1Cc2ccccc2CCc2cc(Cl)ccc21	17-beta-hydroxysteroid dehydrogenase type 3 (Homo sapiens, UniProt P37058)	=	630
O=C(C1CC1)N1Cc2ccc(Br)cc2CCc2ccccc21	17-beta-hydroxysteroid dehydrogenase type 3 (Homo sapiens, UniProt P37058)	=	1750
COc1cccc(-c2ccc3c(c2)CN(C(C)=O)c2ccc(Cl)cc2CC3)c1	17-beta-hydroxysteroid dehydrogenase type 3 (Homo sapiens, UniProt P37058)	=	53
CC(=O)N1Cc2ccccc2CNc2ccccc21	17-beta-hydroxysteroid dehydrogenase type 3 (Homo sapiens, UniProt P37058)	>	10000
CC(=O)N1Cc2ccccc2CSc2cc(Br)ccc21	17-beta-hydroxysteroid dehydrogenase type 3 (Homo sapiens, UniProt P37058)	=	120
